- STUDY_SYSTEM: His-DciA WT (UniProt A0A0H3C5R2 1-179)
- Sequence (A0A0H3C5R2 entry or part of it): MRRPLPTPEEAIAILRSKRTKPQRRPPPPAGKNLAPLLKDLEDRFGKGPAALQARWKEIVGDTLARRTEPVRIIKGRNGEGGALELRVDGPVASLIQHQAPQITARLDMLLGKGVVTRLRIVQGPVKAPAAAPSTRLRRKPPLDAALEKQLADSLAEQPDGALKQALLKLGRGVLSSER
- TEST_METHOD_NOTES: EMSA; 50 mM K-glutamate; EMSA: 20 mM Tris-HCl pH 7.5, 10 mM Mg acetate, 50 or 150 mM K-glutamate, 0.1 mg/ml BSA, 10% glycerol, 2 mM ATP, 12.5 nM DNA, 5 min on ice; M13 pull-down: Tris pH 7.5, 10 mM Mg acetate, 50 mM K-glutamate, 0.1 mM ATP, 0.1 mg/ml BSA, 30 C
- CONDITION_NOTES: protein: recombinant; tags: N-terminal His6; label: 5'-FAM
MEASURE: Kd (nM)
Value expressed in nM; do not type the unit.

{"columns": ["BINDER", "TEST_RESULT"],
 "data": [
  ["TTTTTTTTTTTTTTTTTTTTTTTTTTTTTTTTTTT (ssDNA) [35-mer oligo 2201]", 19.6]
]}

The record that follows has no Kd shown yet.
Query: What value of Kd has been recorded for this entry: 80-mer oligo 1790 (ssDNA) DNA: TCCTTGTTATCCACAGGGCAGTTTTTTTTTTTTTTTTTTTTTTTTTTTTTTTTTTTTTTTTGTGCGATATAGTTCTCCGA
Result: 49.7
